experiment summary: Metabolic stability in mouse liver microsomes assessed as intrinsic clearance at 1 uM preincubated for 10 mins followed by NADPH addition and further incubated upto 60 mins by LC-MS/MS analysis
Format: ADME, Microsome
setup conditions: time 70 min, read-out: CLH
measured attribute: CLint scaled at 1 µM
# number then unit; no other words

Challenge: Name the recorded CLint scaled at 1 µM of the item CS(=O)(=O)c1cc([N+](=O)[O-])c2sc(N3CCN(CC4CCCCC4)C4(CC4)C3)nc(=O)c2c1 in your answer.
Response given: 163 mL/min/kg

Challenge: Identify the reported CLint scaled at 1 µM for the following entry. CS(=O)(=O)c1cc([N+](=O)[O-])c2sc(N3CCN(CC4CCC(F)(F)CC4)CC3)nc(=O)c2c1
Response given: 92.4 mL/min/kg

Challenge: Indicate its recorded CLint scaled at 1 µM; the molecule in question is O=c1nc(N2CCN(CC3CCCCC3)CC2)sc2c([N+](=O)[O-])cc(C(F)(F)F)cc12
Response given: 174 mL/min/kg

Challenge: // fetch CLint scaled at 1 µM given entry CS(=O)(=O)c1cc([N+](=O)[O-])c2sc(N3CCN(CC4CCCCC4)CC3)nc(=O)c2c1
Response given: 129 mL/min/kg
